- Subject Of Test: T1, Human ALPP (leucine zipper) (human)
- T1 construct: Whole entry: ALPP fused with a cysteine stabilised leucine zipper and His tag; also called hALPP
- T1 chain: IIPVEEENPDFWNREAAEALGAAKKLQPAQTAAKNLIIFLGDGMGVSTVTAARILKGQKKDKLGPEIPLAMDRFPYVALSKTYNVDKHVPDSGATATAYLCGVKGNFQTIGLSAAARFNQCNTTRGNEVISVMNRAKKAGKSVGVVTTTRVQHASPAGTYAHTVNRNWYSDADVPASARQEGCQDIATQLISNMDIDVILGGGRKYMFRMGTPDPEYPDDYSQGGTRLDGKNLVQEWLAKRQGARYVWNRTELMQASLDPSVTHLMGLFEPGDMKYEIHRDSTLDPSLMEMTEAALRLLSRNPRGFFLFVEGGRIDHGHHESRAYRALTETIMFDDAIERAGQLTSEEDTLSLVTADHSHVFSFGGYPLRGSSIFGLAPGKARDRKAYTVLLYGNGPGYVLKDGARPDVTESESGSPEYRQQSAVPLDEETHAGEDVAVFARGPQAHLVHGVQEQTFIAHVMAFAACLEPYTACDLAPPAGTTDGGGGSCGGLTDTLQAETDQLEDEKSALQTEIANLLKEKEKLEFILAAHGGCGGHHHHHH
- Test Name: BLI, antigen immobilised
For each of the binders below, state its kon.
Give bare numbers, in M⁻¹ s⁻¹.

Answered cases to consult:
E06 His (VHH, not shown: small tags and cut ends) VHH: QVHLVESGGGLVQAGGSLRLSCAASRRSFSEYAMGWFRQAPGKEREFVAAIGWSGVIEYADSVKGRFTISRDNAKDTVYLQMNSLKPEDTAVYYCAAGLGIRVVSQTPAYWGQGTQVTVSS yielded kon of 106000

D04 His (VHH, not shown: small tags and cut ends) VHH: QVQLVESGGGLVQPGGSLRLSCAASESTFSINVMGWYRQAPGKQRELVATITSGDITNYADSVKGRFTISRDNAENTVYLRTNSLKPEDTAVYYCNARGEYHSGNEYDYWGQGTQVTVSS yielded kon of 85100

Would you be so kind as to report kon for each listed record?
1. C07 His (VHH, not shown: small tags and cut ends, also called #258) VHH: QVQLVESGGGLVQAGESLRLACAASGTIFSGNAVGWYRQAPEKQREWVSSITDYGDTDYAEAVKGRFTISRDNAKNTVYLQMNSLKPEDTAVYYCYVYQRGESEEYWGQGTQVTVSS
2. F05 His (VHH, not shown: small tags and cut ends) VHH: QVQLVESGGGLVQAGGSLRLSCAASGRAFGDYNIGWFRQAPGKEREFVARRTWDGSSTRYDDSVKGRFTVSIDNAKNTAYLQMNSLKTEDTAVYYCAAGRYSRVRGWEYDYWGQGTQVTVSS

## Output
1. 129000
2. 13900
